Just for reference, ChEMBL document CHEMBL3988442 is where these values come from.

Test system: Leishmania donovani
assay-text: Leishmania intramacrophage assay
Format: functional, organism-based
Set-up: scale not given: in the data most compounds retested in dose-response had high values
condition-details: 30.3 µM; […]
In all, about 69,000 compounds went through this assay and about 1,000 (1.4%) showed an effect of 50% or more. The sample holds strong results, similar compounds and a random draw of the others, so the mix is not that of the screen.
endpoint-label: Percent Effect

smiles-text	endpoint-label	reported
O=C(CC1CC1)NCc1cn2c(n1)CN(C(=O)C1CCOCC1)CC2	Percent Effect	-40.34%
O=C1CCC(=O)c2oc3ccc(Br)cc3c2N1	Percent Effect	-16.45%
Cn1ncc2c(NCCCOc3cccnc3)nc(C3CCCC3)nc21	Percent Effect	7.938%
O=C(c1occc1CN1C(=O)Cc2ccccc21)N1CCCCCC1	Percent Effect	31.83%
Cc1nnc([C@@H]2C[C@H]3CN(C(=O)c4sccc4C)C[C@H]3O2)[nH]1	Percent Effect	16.44%
